Mean % WT Binding for assorted binders
- targetUnderTest: human CD33 G151A (human, UniProt P20138 18-364)
- Sequence (P20138 18-364 G151A limits assumed): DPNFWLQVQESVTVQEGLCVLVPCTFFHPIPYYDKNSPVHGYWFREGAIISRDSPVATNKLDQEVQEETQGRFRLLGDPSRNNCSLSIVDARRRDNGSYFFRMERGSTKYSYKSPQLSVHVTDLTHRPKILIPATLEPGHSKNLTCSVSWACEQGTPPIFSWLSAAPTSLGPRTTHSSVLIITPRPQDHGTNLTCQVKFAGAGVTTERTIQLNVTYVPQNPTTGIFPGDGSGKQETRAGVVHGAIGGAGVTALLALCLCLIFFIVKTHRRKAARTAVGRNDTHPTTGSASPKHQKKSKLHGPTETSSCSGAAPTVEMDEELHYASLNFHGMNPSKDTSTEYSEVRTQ
- testDetails: flow cytometry on HEK293-T, alanine scan
Respond with the figure and its unit, in that order.

Refmab #4 (antibody, V domains shown, The alanine scan used IgG or Fab) VH: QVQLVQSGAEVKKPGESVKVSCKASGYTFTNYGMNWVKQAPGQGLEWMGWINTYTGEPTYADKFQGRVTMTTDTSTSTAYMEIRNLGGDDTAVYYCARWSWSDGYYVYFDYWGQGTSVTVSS VL: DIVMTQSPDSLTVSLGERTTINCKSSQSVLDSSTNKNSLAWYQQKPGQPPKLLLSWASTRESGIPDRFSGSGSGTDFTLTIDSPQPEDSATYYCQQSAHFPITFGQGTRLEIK | 101 % WT binding
Refmab #2 (antibody, V domains shown, The alanine scan used IgG or Fab) VH: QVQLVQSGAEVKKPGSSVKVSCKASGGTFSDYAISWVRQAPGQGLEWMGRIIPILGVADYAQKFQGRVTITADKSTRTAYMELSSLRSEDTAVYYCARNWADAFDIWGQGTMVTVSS VL: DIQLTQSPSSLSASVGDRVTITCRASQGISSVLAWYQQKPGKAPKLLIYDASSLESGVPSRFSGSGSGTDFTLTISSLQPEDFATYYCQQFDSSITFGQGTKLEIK | 132 % WT binding
Refmab #3 (antibody, V domains shown, The alanine scan used IgG or Fab) VH: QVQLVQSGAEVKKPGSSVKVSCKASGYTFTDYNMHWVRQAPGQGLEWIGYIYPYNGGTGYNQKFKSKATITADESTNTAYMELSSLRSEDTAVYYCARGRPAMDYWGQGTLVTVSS VL: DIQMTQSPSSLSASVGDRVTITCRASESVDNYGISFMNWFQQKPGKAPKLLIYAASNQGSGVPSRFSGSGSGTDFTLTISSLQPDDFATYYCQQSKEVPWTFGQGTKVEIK | 108 % WT binding

Now turn to the next binder.
Entry Refmab #1 (antibody, V domains shown, The alanine scan used IgG or Fab; also called hP67.6) VH: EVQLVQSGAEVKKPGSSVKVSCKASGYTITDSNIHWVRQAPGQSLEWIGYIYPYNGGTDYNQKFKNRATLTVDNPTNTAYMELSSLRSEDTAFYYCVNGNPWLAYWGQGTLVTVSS VL: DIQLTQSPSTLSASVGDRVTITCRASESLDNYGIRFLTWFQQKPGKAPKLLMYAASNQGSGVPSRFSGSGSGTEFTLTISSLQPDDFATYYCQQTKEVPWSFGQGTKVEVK : reported Mean % WT Binding = ?
81.1 % WT binding
